Would you kindly list pIC50 for each of these compounds?
- measured_target: (h)SERT (Homo sapiens, UniProt P31645)
- Construct: expressed in transfected cells; host or cells: HEK293
- Sequence (P31645 whole entry): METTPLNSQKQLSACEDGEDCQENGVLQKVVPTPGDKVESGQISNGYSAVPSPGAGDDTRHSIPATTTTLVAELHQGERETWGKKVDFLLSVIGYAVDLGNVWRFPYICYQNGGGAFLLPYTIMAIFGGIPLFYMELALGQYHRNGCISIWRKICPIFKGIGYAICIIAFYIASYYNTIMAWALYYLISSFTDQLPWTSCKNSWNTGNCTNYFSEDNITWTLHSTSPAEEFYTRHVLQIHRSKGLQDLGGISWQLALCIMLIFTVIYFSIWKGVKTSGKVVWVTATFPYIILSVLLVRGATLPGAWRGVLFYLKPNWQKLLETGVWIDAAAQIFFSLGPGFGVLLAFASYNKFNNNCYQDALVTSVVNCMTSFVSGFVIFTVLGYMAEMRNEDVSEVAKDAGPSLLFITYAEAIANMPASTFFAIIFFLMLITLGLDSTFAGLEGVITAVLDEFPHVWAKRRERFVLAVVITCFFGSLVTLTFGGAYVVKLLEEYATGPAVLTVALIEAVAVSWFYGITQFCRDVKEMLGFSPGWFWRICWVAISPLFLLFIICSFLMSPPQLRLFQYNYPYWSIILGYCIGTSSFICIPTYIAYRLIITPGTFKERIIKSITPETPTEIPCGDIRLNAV
- method_notes: block of [3H]serotonin reuptake in HEK-(h)SERT cells
- Format: cell-based
- assay_setup: read-out: Uptake, IC50 [3H]5-HT
Friendly reminder that pIC50 comes from taking -log10 of the concentration in mol/L.

Problem: // returns reported pIC50 for input CCCC(NC(C)(C)C)C(=O)c1ccc(Cl)c(Cl)c1 (stereo not drawn)
Solution: 5.80

Problem: // returns reported pIC50 for input CC(C(=O)c1cccc(Cl)c1)N1CCCCC1 (stereo not drawn)
Solution: 6.01

Problem: // returns reported pIC50 for input CC(NC(C)(C)C)C(=O)c1ccc(Br)cc1 (stereo not drawn)
Solution: 5.60
